Overview of reported kinact across a group of compounds:
Assay: Rate constant of inactivation
property.measured: kinact (s⁻¹)

- compound: "NS(=O)(=O)Oc1ccc2oc(C3CCCC3)cc(=O)c2c1"
  property.measured: "kinact"
  unit.tag: "s⁻¹"
  reported.measurement: 0.011
- compound: "CCCCCC12CCC(c3cc(=O)c4cc(OS(N)(=O)=O)ccc4o3)(CC1)CC2"
  property.measured: "kinact"
  unit.tag: "s⁻¹"
  reported.measurement: 0.074
- compound: "CCCCCCCCCc1cc(=O)c2cc(OS(N)(=O)=O)ccc2o1"
  property.measured: "kinact"
  unit.tag: "s⁻¹"
  reported.measurement: 0.006
- compound: "NS(=O)(=O)Oc1ccc2oc(C3C4CC5CC3CC5C4)cc(=O)c2c1 (stereo not drawn)"
  property.measured: "kinact"
  unit.tag: "s⁻¹"
  reported.measurement: 0.042
- compound: "NS(=O)(=O)Oc1ccc2sc(C34CC5CC(CC(C5)C3)C4)cc(=O)c2c1"
  property.measured: "kinact"
  unit.tag: "s⁻¹"
  reported.measurement: 0.115
- compound: "NS(=O)(=O)Oc1ccc2c(=O)c(C3CCCCC3)coc2c1"
  property.measured: "kinact"
  unit.tag: "s⁻¹"
  reported.measurement: 0.07
- compound: "NS(=O)(=O)Oc1ccc2c(c1)CCC(C1CCCCC1)O2 (stereo not drawn)"
  property.measured: "kinact"
  unit.tag: "s⁻¹"
  reported.measurement: 0.016
- compound: "NS(=O)(=O)Oc1ccc2oc(C3CCCCCCCCCCC3)cc(=O)c2c1"
  property.measured: "kinact"
  unit.tag: "s⁻¹"
  reported.measurement: 0.04
- compound: "NS(=O)(=O)Oc1ccc2c(c1)C(O)CC(C1CCCCC1)O2 (stereo not drawn)"
  property.measured: "kinact"
  unit.tag: "s⁻¹"
  reported.measurement: 0.018
- compound: "NS(=O)(=O)Oc1ccc2c(=O)cc(C3CCCCC3)oc2c1"
  property.measured: "kinact"
  unit.tag: "s⁻¹"
  reported.measurement: 0.02
- compound: "CC(C)(C)c1cc(=O)c2cc(OS(N)(=O)=O)ccc2o1"
  property.measured: "kinact"
  unit.tag: "s⁻¹"
  reported.measurement: 0.07
- compound: "NS(=O)(=O)Oc1ccc2oc(C3CCCCC3)cc(=O)c2c1"
  property.measured: "kinact"
  unit.tag: "s⁻¹"
  reported.measurement: 0.035
- compound: "NS(=O)(=O)Oc1ccc2c(c1)C(=O)CC(C13CC4CC(CC(C4)C1)C3)O2 (stereo not drawn)"
  property.measured: "kinact"
  unit.tag: "s⁻¹"
  reported.measurement: 0.017

----------
Experiment: Inhibition constant as dissociation constant of the noncovalent (STS) enzyme-inhibitor complex
Assay type: ADME

- compound: "NS(=O)(=O)Oc1ccc2oc(C3C4CC5CC3CC5C4)cc(=O)c2c1 (configuration not stated)"
  Ki: "0.22 µM"
- compound: "CCCCCCCCCc1cc(=O)c2cc(OS(N)(=O)=O)ccc2o1"
  Ki: "1.7 µM"
- compound: "NS(=O)(=O)Oc1ccc2c(=O)c(C3CCCCC3)coc2c1"
  Ki: "1.2 µM"
- compound: "NS(=O)(=O)Oc1ccc2oc(C3CCCCC3)cc(=O)c2c1"
  Ki: "1 µM"
- compound: "NS(=O)(=O)Oc1ccc2c(c1)CCC(C1CCCCC1)O2 (configuration not stated)"
  Ki: "32 µM"
- compound: "CCCCCC12CCC(c3cc(=O)c4cc(OS(N)(=O)=O)ccc4o3)(CC1)CC2"
  Ki: "0.5 µM"
- compound: "NS(=O)(=O)Oc1ccc2sc(C34CC5CC(CC(C5)C3)C4)cc(=O)c2c1"
  Ki: "0.21 µM"

----------
A set of molecules tested on Steryl-sulfatase (Homo sapiens), with measured IC50:

- molecule: "CCCCCCCCC(C)(C)c1cc(=O)c2cc(OS(N)(=O)=O)ccc2o1"
  bound.sign: "="
  IC50 (nM): 78
- molecule: "NS(=O)(=O)Oc1ccc2c(c1)C(=O)CC(C1CCCCC1)O2 (centres undefined)"
  bound.sign: "="
  IC50 (nM): 280
- molecule: "CC1(C)C(c2cc(=O)c3cc(OS(N)(=O)=O)ccc3o2)C1(C)C"
  bound.sign: "="
  IC50 (nM): 45
- molecule: "NS(=O)(=O)Oc1ccc2oc(C3CCCCCCCCCCC3)cc(=O)c2c1"
  bound.sign: "="
  IC50 (nM): 45
- molecule: "NS(=O)(=O)Oc1ccc2c(c1)C(=O)CC(c1ccccc1)O2 (centres undefined)"
  bound.sign: "="
  IC50 (nM): 2580
- molecule: "NS(=O)(=O)Oc1ccc2oc(Cc3ccccc3)cc(=O)c2c1"
  bound.sign: "="
  IC50 (nM): 1620
- molecule: "CCCc1cc(=O)c2ccc(OS(N)(=O)=O)cc2o1"
  bound.sign: ">"
  IC50 (nM): 100000
- molecule: "NS(=O)(=O)Oc1ccc2oc(C3C4CC5CC3CC5C4)cc(=O)c2c1 (centres undefined)"
  bound.sign: "="
  IC50 (nM): 11
- molecule: "NS(=O)(=O)Oc1ccc2c(=O)cc(C3CCCCC3)oc2c1"
  bound.sign: "="
  IC50 (nM): 6330

----------
Overview of reported pIC50 across a group of molecules:
Biological target: UniProtKB P08842
Sequence (P08842 whole entry): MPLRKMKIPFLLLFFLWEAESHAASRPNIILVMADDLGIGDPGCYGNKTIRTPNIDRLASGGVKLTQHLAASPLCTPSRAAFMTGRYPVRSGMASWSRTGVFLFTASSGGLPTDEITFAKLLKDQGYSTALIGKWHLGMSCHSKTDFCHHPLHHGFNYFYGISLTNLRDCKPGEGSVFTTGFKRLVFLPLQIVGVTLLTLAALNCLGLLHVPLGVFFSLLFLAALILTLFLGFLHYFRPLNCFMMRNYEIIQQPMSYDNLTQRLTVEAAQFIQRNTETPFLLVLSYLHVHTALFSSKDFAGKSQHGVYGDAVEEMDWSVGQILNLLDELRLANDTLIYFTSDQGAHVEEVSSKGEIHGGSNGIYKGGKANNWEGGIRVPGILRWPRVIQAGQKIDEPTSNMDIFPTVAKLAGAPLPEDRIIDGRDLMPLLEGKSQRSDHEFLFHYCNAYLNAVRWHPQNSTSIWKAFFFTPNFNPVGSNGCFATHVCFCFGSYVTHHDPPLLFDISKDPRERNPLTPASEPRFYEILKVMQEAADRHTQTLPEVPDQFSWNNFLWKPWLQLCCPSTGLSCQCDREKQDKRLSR
pIC50: −log10 of the molar value.
property.measured: pIC50

- molecule: "NS(=O)(=O)Oc1ccc2c(=O)c(-c3ccccc3)coc2c1"
  property.measured: "pIC50"
  reported.measurement: 6.36
- molecule: "NS(=O)(=O)Oc1ccc2oc(CCc3ccccc3)cc(=O)c2c1"
  property.measured: "pIC50"
  reported.measurement: 6.72
- molecule: "CCCCCCCCCc1cc(=O)c2cc(OS(N)(=O)=O)ccc2o1"
  property.measured: "pIC50"
  reported.measurement: 6.39
- molecule: "NS(=O)(=O)Oc1ccc2c(c1)CCC(C1CCCCC1)O2 (stereo unspecified)"
  property.measured: "pIC50"
  reported.measurement: 4.95
- molecule: "CC(C)(C)c1cc(=O)c2cc(OS(N)(=O)=O)ccc2o1"
  property.measured: "pIC50"
  reported.measurement: 7.66
- molecule: "CCCCCC12CCC(c3cc(=O)c4cc(OS(N)(=O)=O)ccc4o3)(CC1)CC2"
  property.measured: "pIC50"
  reported.measurement: 7.96

----------
Experiment: Inhibition constant as dissociation constant of the noncovalent (STS) enzyme-inhibitor complex
Type: ADME
pKi: −log10 of the molar value.

- molecule: "NS(=O)(=O)Oc1ccc2c(c1)C(O)CC(C1CCCCC1)O2 (stereo unspecified)"
  pKi: 4.27
- molecule: "NS(=O)(=O)Oc1ccc2c(=O)cc(C3CCCCC3)oc2c1"
  pKi: 4.62
- molecule: "NS(=O)(=O)Oc1ccc2oc(C3CCCCCCCCCCC3)cc(=O)c2c1"
  pKi: 5.96
- molecule: "NS(=O)(=O)Oc1ccc2oc(C3CCCC3)cc(=O)c2c1"
  pKi: 6.14
- molecule: "CC(C)(C)c1cc(=O)c2cc(OS(N)(=O)=O)ccc2o1"
  pKi: 6.05
- molecule: "NS(=O)(=O)Oc1ccc2c(c1)C(=O)CC(C13CC4CC(CC(C4)C1)C3)O2 (stereo unspecified)"
  pKi: 5.73
